Test system: biotinyl-Trp-oxazolone
assay_comment: self-aminoacylation, catalytic enhancement (BWO) (fold over background); higher = more active; k-Seq, kA / k0A0; sequences stand for … in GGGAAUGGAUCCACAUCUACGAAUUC…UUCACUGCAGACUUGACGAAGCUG
Fewer inactive variants are shown than the library holds.
Could you please report measured self-aminoacylation for the items listed next?
API doc: respond with a numeric literal and nothing else, no unit.

So for AUUACCCCGGUCAUCGCGUGA [Fam2.1 aminoacylation ribozyme variant] , the logged self-aminoacylation turned out to be 23.8

self-aminoacylation in this record for AUUCACCUAGCUCAUCGGGUA [Fam2.2 aminoacylation ribozyme variant] : 2.53

Entry AAGUUUGCUAAUAGUGGCAAU [Fam3.1 aminoacylation ribozyme variant] , self-aminoacylation reported as 0.811

Lab note: measured self-aminoacylation of AAUCACCUAGGGCAUCGGGUG [Fam2.2 aminoacylation ribozyme variant] was 5.34

The reported value for AUUACCCUGGUAAUCAAGUGA [Fam2.1 aminoacylation ribozyme variant] in terms of self-aminoacylation is 3.48

self-aminoacylation recorded for this sequence, CCGCACUUCAAGCAAUCGGUU [Fam1B.1 aminoacylation ribozyme variant] , is 14.4

# self-aminoacylation of CAACUUCAAACAAUCGGUCGG [Fam1A.1 aminoacylation ribozyme variant] = 32.4

Record AUUACGCUGGUCAUCGAGAGA [Fam2.1 aminoacylation ribozyme variant] . Reported self-aminoacylation: 1.59

Lab book: self-aminoacylation of AUUACCCCGGUCAUCGAGUGU [Fam2.1 aminoacylation ribozyme variant] noted as 3.57

Measured self-aminoacylation, AUUACCCGGGUCAUCGAGUCA [Fam2.1 aminoacylation ribozyme variant] : 0.967

What the record says about AAGUCUGCUCAUAGUCGCAAG [Fam3.1 aminoacylation ribozyme variant] : self-aminoacylation is 4.23

Note to self: self-aminoacylation recorded for CUACUUCAAAGAAUUGGUCUG [Fam1A.1 aminoacylation ribozyme variant] was 0.806

Consider CCCCACUUCAAGCAAUCGGGC [Fam1B.1 aminoacylation ribozyme variant] . Its measured self-aminoacylation is 5.69

Looking up AACUUUGCUAACAGUCGCAAG [Fam3.1 aminoacylation ribozyme variant] , I found its self-aminoacylation recorded as 2.08

The value of self-aminoacylation measured for the sequence AUUACGCUGGUCUUCGAGUGA [Fam2.1 aminoacylation ribozyme variant] turned out to be 5.95

Memo: CAGUUUGCUAAUAGCCGCAAG [Fam3.1 aminoacylation ribozyme variant] , reported self-aminoacylation: 1.07

Note to self: self-aminoacylation recorded for AUUCACCGAGGUCAUCGCGUG [Fam2.2 aminoacylation ribozyme variant] was 14.8

So, AUCCACCUAGGUCAUUGGGUG [Fam2.2 aminoacylation ribozyme variant] ? Its self-aminoacylation was 3.8

###

Tested on: biotinyl-Trp-oxazolone
assay_comment: self-aminoacylation, catalytic enhancement (BWO) (fold over background); higher = more active; k-Seq, kA / k0A0; sequences stand for … in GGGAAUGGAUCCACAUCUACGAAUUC…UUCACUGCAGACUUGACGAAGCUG
This sample holds only a part of the variants without activity.
For each entry below, report its self-aminoacylation value.
The response must contain the number and no unit.

Record AAAUUUGCUAAUAGUCCCAAG [Fam3.1 aminoacylation ribozyme variant] , field self-aminoacylation: 0.979

Per the records, this sequence ( CUUCUUCACACAAUCGGUCUG [Fam1A.1 aminoacylation ribozyme variant] ) has self-aminoacylation equal to 0.81

Kindly note the recorded self-aminoacylation for CCACUUUUCAAGCAAUCGGUC [Fam1B.1 aminoacylation ribozyme variant] , which is 1.06

Recorded result, CGACACUUCAAGGAAUCGGUC [Fam1B.1 aminoacylation ribozyme variant] , self-aminoacylation: 1.84
